Where do the numbers come from? From ChEMBL document CHEMBL1139380.

experiment: physchem; settings: octanol/water, pH 7.4
Record form. Attribute: logD. Fill in for each entry.
Give bare numbers.

Take a look at these entries with their results.
1. CC1=NN(c2ccccc2)C(=O)C1	0.78
2. CC1=NN(c2ccc(OCCCO[N+](=O)[O-])cc2)C(=O)C1	1.59

Reported logD, molecule CC1=NN(c2ccc(OCCCCC(CO[N+](=O)[O-])O[N+](=O)[O-])cc2)C(=O)C1 (stereo not drawn) : ____
2.54

====

assay: physchem; conditions: octanol/water
Description: Lipophilicity, neutral log P of the compound
Readout label: logP
One number for each entry.

Take a look at these entries with their results.
1. CC1=NN(c2ccccc2)C(=O)C1 [EDARAVONE]	1.28
2. COc1no[n+]([O-])c1-c1ccccc1	2.47
3. CC1=NN(c2ccc(OCCCCCCO[N+](=O)[O-])cc2)C(=O)C1	3.34
4. COCCCO[N+](=O)[O-]	1.01

For the 8 molecules below, give their logP values.
1. CC1=NN(c2ccc(OCCCO[N+](=O)[O-])cc2)C(=O)C1
2. COCc1no[n+]([O-])c1C#N
3. CC1=NN(c2ccc(OCc3no[n+]([O-])c3C(N)=O)cc2)C(=O)C1
4. CC1=NN(c2ccc(OCc3no[n+]([O-])c3C#N)cc2)C(=O)C1
5. COc1ccc(N2N=C(C)CC2=O)cc1
6. CCOc1no[n+]([O-])c1S(=O)(=O)c1ccccc1
7. CC1=NN(c2ccc(OCCCCC(CO[N+](=O)[O-])O[N+](=O)[O-])cc2)C(=O)C1 (centres undefined)
8. COCc1no[n+]([O-])c1C(N)=O

1: 1.9; 2: 0.83; 3: 0.92; 4: 1.72; 5: 1.19; 6: 3.15; 7: 3.1; 8: 0.14

For the 2 molecules below, give their logP values.
1. COCCCCCCO[N+](=O)[O-]
2. CC1=NN(c2ccc(OCCCOc3no[n+]([O-])c3S(=O)(=O)c3ccccc3)cc2)C(=O)C1

[2.23, 3.62]

====

test: physchem; settings: octanol/water, pH 7.4
Record form. Attribute: logD. Fill in for each entry.
Answers are plain numbers.

1. CC1=NN(c2ccc(OCCCOc3no[n+]([O-])c3S(=O)(=O)c3ccccc3)cc2)C(=O)C1	3.16
2. CC1=NN(c2ccc(OCc3no[n+]([O-])c3C#N)cc2)C(=O)C1	1.28
3. COc1ccc(N2N=C(C)CC2=O)cc1	0.77
4. CC1=NN(c2ccc(OCc3no[n+]([O-])c3C(N)=O)cc2)C(=O)C1	0.48

Turning to the following compound.
Reported logD, compound CC1=NN(c2ccc(OCCCCCCO[N+](=O)[O-])cc2)C(=O)C1 : ____
2.67

====

details: octanol/water
Description: Lipophilicity, ionic log P by shake flask method
Decide by logPi: equal to or exceeding 0.05 means 1, less means 0.

As a guide, the following entries are already answered.
1. CC1=NN(c2ccc(OCCCO[N+](=O)[O-])cc2)C(=O)C1	0
2. CC1=NN(c2ccc(OCCCOc3no[n+]([O-])c3S(=O)(=O)c3ccccc3)cc2)C(=O)C1	1
3. CC1=NN(c2ccc(OCCCCCCO[N+](=O)[O-])cc2)C(=O)C1	1

Does CC1=NN(c2ccc(OCc3no[n+]([O-])c3C#N)cc2)C(=O)C1 have a reported logPi of at least 0.05?
0
